Entry source: patent US4962110A

biological target: PDE (Peak III); experiment: Inhibition of phosphodiesterase PDE (Peak III) from cat heart; details: read-out: IC50 PDE (Peak III); 1 μM cyclic AMP, 37°, pH 7.5
pIC50: −log10 of the molar value.
measuredMetric: pIC50

CC1CC(=O)NN=C1c1ccc(Nc2nc(=O)c3ccccc3[nH]2)cc1 (stereo not drawn) ... 6.82
Cc1cc(=O)nc(Nc2ccc(C3=NNC(=O)CC3C)cc2)[nH]1 (stereo not drawn) ... 6.35
Cc1[nH]c(=O)c(C#N)cc1-c1ccncc1 ... 5.66

P: Cc1c[nH]c(Nc2ccc(C3=NNC(=O)CC3C)cc2)nc1=O (stereo not drawn)
Q: CC1CC(=O)NN=C1c1ccc(Nc2nc(=O)cc[nH]2)cc1 (stereo not drawn)
R: Nc1cc(-c2ccncc2)c[nH]c1=O
INPUT: Sort by pIC50, descending. In your reply, arrange the labels in the requested order.
OUTPUT: Q, P, R
